Origin of the recorded values: patent US7067277

system.under.test: human dopamine D5 receptor (human, UniProt P21918 1-477)
Sequence (P21918 whole entry): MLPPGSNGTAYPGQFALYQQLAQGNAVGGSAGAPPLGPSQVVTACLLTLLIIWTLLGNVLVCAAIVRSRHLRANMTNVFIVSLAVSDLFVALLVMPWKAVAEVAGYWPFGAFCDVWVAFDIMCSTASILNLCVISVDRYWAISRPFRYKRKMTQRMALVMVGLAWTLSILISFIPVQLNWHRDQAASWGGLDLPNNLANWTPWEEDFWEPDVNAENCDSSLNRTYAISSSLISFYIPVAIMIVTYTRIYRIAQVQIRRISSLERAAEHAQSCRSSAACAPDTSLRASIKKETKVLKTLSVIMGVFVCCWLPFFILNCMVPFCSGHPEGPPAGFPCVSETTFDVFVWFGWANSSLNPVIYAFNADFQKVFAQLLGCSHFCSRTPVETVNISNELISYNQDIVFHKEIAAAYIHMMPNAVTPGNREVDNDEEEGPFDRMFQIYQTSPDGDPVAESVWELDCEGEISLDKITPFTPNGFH
assay.method.text: cell-based or functional assay
Parameter: max Ca2+ signal, COS-7, FLIPR; agonist DA. Scope: all listed entries.
Unit fluorescence units implied. Number only.

Field: example entries. Status: answers known.
binder	unit.descriptor	readout.value
C. elegans Gαq/s9 (other) MACCLSEEAREQKRINQEIEKQLQRDKRNARRELKLLLLGTGESGKSTFIKQMRIIHGQGYSEEDKRAHIRLVYQNVFMAIQSMIRAMDTLDIKFGNESEELQEKAAVVREVDFESVTSFEEPYVSYIKELWEDSGIQECYDRRREYQLTDSAKYYLSDLRRLAVPDYLPTEQDILRVRVPTTGIIEYPFDLEQIIFRMVDVGGQRSERRKWIHCFENVTSIMFLVALSEYDQVLVECDNENRMEESKALFRTIITYPWFTNSSVILFLNKKDLLEEKILYSHLADYFPEYDGPPRDPIAAREFILKMFVDLNPDADKIIYSHFTCATDTENIRFVFAAVKDTILQMHLRQYELL	fluorescence units	1870
Human Gαq/s9 (other) MTLESIMACCLSEEAKEARRINDEIERQLRRDKRDARRELKLLLLGTGESGKSTFIKQMRIIHGSGYSDEDKRGFTKLVYQNIFTAMQAMIRAMDTLKIPYKYEHNKAHAQLVREVDVEKVSAFENPYVDAIKSLWNDPGIQECYDRRREYQLSDSTKYYLNDLDRVADPSYLPTQQDVLRVRVPTTGIIEYPFDLQSVIFRMVDVGGQRSERRKWIHCFENVTSIMFLVALSEYDQVLVESDNENRMEESKALFRTIITYPWFQNSSVILFLNKKDLLEEKIMYSHLVDYFPEYDGPQRDAQAAREFILKMFVDLNPDSDKIIYSHFTCATDTENIRFVFAAVKDTILQMHLRQYELL	fluorescence units	745

Kindly indicate its recorded max Ca2+ signal, COS-7, FLIPR; agonist DA. Item: C. elegans Gαq/s21 (other) MACCLSEEAREQKRINQEIEKQLQRDKRNARRELKLLLLGTGESGKSTFIKQMRIIHGQGYSEEDKRAHIRLVYQNVFMAIQSMIRAMDTLDIKFGNESEELQEKAAVVREVDFESVTSFEEPYVSYIKELWEDSGIQECYDRRREYQLTDSAKYYLSDLRRLAVPDYLPTEQDILRVRVPTTGIIEYPFDLEQIIFRMVDVGGQRSERRKWIHCFENVTSIMFLVALSEYDQVLVECDNENRMEESKALFRTIITYPWFTNSSVILFLNKKDLLEEKILYSHLADYFPEYDGPPRDPIAAREFILKMFVDLNPDADKIIYSHFTCATDTENIRRVFNDCRDIIQRMHLRQYELL
3380

Kindly indicate its recorded max Ca2+ signal, COS-7, FLIPR; agonist DA. Item: Human Gαq/s5 (other) MTLESIMACCLSEEAKEARRINDEIERQLRRDKRDARRELKLLLLGTGESGKSTFIKQMRIIHGSGYSDEDKRGFTKLVYQNIFTAMQAMIRAMDTLKIPYKYEHNKAHAQLVREVDVEKVSAFENPYVDAIKSLWNDPGIQECYDRRREYQLSDSTKYYLNDLDRVADPSYLPTQQDVLRVRVPTTGIIEYPFDLQSVIFRMVDVGGQRSERRKWIHCFENVTSIMFLVALSEYDQVLVESDNENRMEESKALFRTIITYPWFQNSSVILFLNKKDLLEEKIMYSHLVDYFPEYDGPQRDAQAAREFILKMFVDLNPDSDKIIYSHFTCATDTENIRFVFAAVKDTILQLNLKQYELL
0
